Each entry below carries its recorded melting point.

For CC(C)(C)[C@H]1C(O)=C(C2=NS(=O)(=O)c3c(CNS(=O)(=O)N4CC[C@H](O)C4)cccc32)C(=O)N1Cc1ccc(F)cc1 , write its melting point.
> 250 °C

For CN(C)S(=O)(=O)N(C)Cc1cccc2c1S(=O)(=O)N=C2C1=C(O)[C@H](C(C)(C)C)N(Cc2ccc(F)cc2)C1=O , write its melting point.
109 to 115 °C

For CC(C)(C)[C@H]1C(O)=C(C2=NS(=O)(=O)c3c2cccc3-c2cn[nH]c2)C(=O)N1Cc1ccc(F)cc1 , write its melting point.
> 250 °C

For O=C1C(C2=NS(=O)(=O)c3ccccc32)=C(O)[C@H](c2ccccc2)N1Cc1ccc(F)cc1 , write its melting point.
145 to 155 °C

More entries:
For COc1ccc(-c2cccc3c2S(=O)(=O)N=C3C2=C(O)[C@H](C(C)(C)C)N(Cc3ccc(F)cc3)C2=O)cn1 , write its melting point.
185 to 190 °C

For CC(C)(C)[C@H]1C(O)=C(C2=NS(=O)(=O)c3ccccc32)C(=O)N1CCC1CC1 , write its melting point.
135 to 140 °C

For O=S1(=O)N=C(c2nc(NCC3CC3)c3ccccc3c2O)c2ccccc21 , write its melting point.
270 to 272 °C

For CNC(=O)CN(Cc1cccc2c1S(=O)(=O)N=C2C1=C(O)[C@H](C(C)(C)C)N(Cc2ccc(F)cc2)C1=O)C(C)=O , write its melting point.
150 to 154 °C

For CC(C)(C)[C@H]1C(O)=C(C2=NS(=O)(=O)c3ccccc32)C(=O)N1Cc1ccccc1 , write its melting point.
170 to 179 °C
